These data points were gathered from the supplement of paper PMC7125110.

self-cleavage kobs at 640 uM GlcN6P by entry:
B1: glmS ribozyme (parent)
chain: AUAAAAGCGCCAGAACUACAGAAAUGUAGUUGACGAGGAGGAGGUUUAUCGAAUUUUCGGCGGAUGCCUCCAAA

Variants of: B1
Test: self-cleavage kobs at 640 uM GlcN6P; higher = faster cleavage; RNA array
Settings: with glucosamine-6-phosphate
This sample holds only a part of the variants without activity.
Attribute Measured: self-cleavage kobs at 640 uM GlcN6P

INSERT INTO assay_data (mutation_key, assay_value) VALUES
  ('G9U U45C', '< 1e-05 s⁻¹'),
  ('G40A U46A', '0.000254 s⁻¹'),
  ('U55G U57G', '5.98e-05 s⁻¹'),
  ('A15C U30C U31G U69G', '0.00017 s⁻¹'),
  ('G7U G13U A15U C50A G51A G60U C67A C71A', '0.000375 s⁻¹'),
  ('A15C C67A', '0.000552 s⁻¹'),
  ('U55G C68G', '6.54e-05 s⁻¹'),
  ('A14G U49G', '0.000937 s⁻¹'),
  ('G35C U49C', '< 1e-05 s⁻¹'),
  ('C10A U31A C58G C67A', '0.00013 s⁻¹'),
  ('G7C C8G A52G', '< 1e-05 s⁻¹'),
  ('G32C G35U G59A', '< 1e-05 s⁻¹'),
  ('A36C C70G', '0.000124 s⁻¹'),
  ('A39U G59C', '< 1e-05 s⁻¹'),
  ('A6G G13U', '< 1e-05 s⁻¹'),
  ('U30C G32U U47A', '0.000115 s⁻¹'),
  ('G9C U65A C68G', '0.000522 s⁻¹'),
  ('A6G U55G', '0.000133 s⁻¹'),
  ('A14C G43C', '< 1e-05 s⁻¹'),
  ('A64G C70G', '4.33e-05 s⁻¹'),
  ('C34U G43C', '< 1e-05 s⁻¹'),
  ('G9C A33U C34G U56A', '< 1e-05 s⁻¹');
